- System under test: glutathione-S-transferase (GST) tagged LXRalpha LBD (ligand binding domain) (Homo sapiens, UniProt Q13133)
- Construct: purchased Invitrogen pv4655
- Sequence (Q13133 209-447 limits assumed): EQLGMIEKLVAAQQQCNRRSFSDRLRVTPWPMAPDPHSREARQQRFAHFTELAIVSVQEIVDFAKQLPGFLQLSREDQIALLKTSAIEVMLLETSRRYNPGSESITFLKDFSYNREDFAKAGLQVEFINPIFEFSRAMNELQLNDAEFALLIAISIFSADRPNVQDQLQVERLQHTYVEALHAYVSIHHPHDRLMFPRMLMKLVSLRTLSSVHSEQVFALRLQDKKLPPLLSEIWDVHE
- Procedure details: LanthaScreen TR-FRET Liver X Receptor Coactivator Assay, LXR alpha-LBD
- Type: biochemical
- Condition: efficacy in relation to reference dual agonist T1317; read-out: LXR alpha activity at max dose (%) (Emax)
Response field label: string, one of True (Emax strictly below 30%) or False.

# Compound, Assigned label
data = [
    ("CN(C)C(=O)c1ccc(-c2cnc(N3CCN(C(=O)OC(C)(C)C)C(c4ccccc4)C3)c(C#N)c2)cc1Cl (centres unmarked)", "False"),
    ("CN(C)C(=O)c1ccc(-c2ccc(N3CCN(S(=O)(=O)c4c(Cl)cccc4Cl)CC3)cc2)cc1Cl", "True"),
    ("CC(C)(C)OC(=O)N1CCN(c2ncc(-c3ccc(C(=O)N4CC[C@H](O)C4)c(Cl)c3)cc2C#N)CC1", "False"),
    ("CN(C)C(=O)c1ccc(-c2ccc(N3CCN(C(=O)OC(C)(C)C)CC3)c(C#N)c2)cc1Cl", "False"),
    ("CN(C)C(=O)c1ccc(-c2ccc(N3CCCN(C(=O)OC(C)(C)C)CC3)cc2)cc1Cl", "False"),
]

Exam item: Bench note: check whether `CN(C)C(=O)c1ccc(-c2cnc(N3CCN(S(=O)(=O)c4cccs4)CC3)c(C#N)c2)cc1Cl` shows Emax below 30%
Marked response: True

Exam item: Bench note: check whether `CN(C)C(=O)c1ccc(-c2cnc(N3CCN(S(=O)(=O)c4cccnc4)CC3)c(C#N)c2)cc1Cl` shows Emax below 30%
Marked response: False

Exam item: Bench note: check whether `CN(C)C(=O)c1ccc(-c2cnc(N3CCN(S(=O)(=O)c4ccccc4F)CC3)c(C#N)c2)cc1Cl` shows Emax below 30%
Marked response: False

Exam item: Bench note: check whether `CC(C)(C)OC(=O)N1CCN(c2ncc(-c3ccc(C(=O)N(CCO)CCO)c(Cl)c3)cc2C#N)CC1` shows Emax below 30%
Marked response: False

Exam item: Bench note: check whether `CN(C)C(=O)c1ccc(-c2cnc(N3CCN(C(=O)C4(c5ccccc5)CCCC4)CC3)c(C#N)c2)cc1Cl` shows Emax below 30%
Marked response: True

Exam item: Bench note: check whether `CN(C)C(=O)c1ccc(-c2cnc(N3CCN(C(=O)Cc4cn5ccsc5n4)CC3)c(C#N)c2)cc1Cl` shows Emax below 30%
Marked response: False

Exam item: Bench note: check whether `CN(C)C(=O)c1ccc(-c2ccc(N3CCN(C(=O)c4c(F)cccc4Cl)CC3)cc2)cc1Cl` shows Emax below 30%
Marked response: True

Exam item: Bench note: check whether CC1CN(c2ncc(-c3ccc(C(=O)N(C)C)c(Cl)c3)cc2C#N)CCN1C(=O)OC(C)(C)C (centres unmarked) shows Emax below 30%
Marked response: False

Exam item: Bench note: check whether `CN(C)C(=O)c1ccc(-c2cnc(N3CCN(S(=O)(=O)c4ccccc4C(F)(F)F)CC3)c(C#N)c2)cc1Cl` shows Emax below 30%
Marked response: False

Exam item: Bench note: check whether `CN(CCn1cncn1)C(=O)c1ccc(-c2cnc(N3CCN(C(=O)[C@](O)(c4ccccc4)C(F)(F)F)CC3)c(C#N)c2)cc1Cl` shows Emax below 30%
Marked response: False

Exam item: Bench note: check whether `CON(C)C(=O)c1ccc(-c2cnc(N3CCN(C(=O)OC(C)(C)C)CC3)c(C#N)c2)cc1Cl` shows Emax below 30%
Marked response: False

Exam item: Bench note: check whether `CN(C)C(=O)c1ccc(-c2cnc(N3CCN(S(=O)(=O)c4ccccc4OC(F)(F)F)CC3)c(C#N)c2)cc1Cl` shows Emax below 30%
Marked response: False

Exam item: Bench note: check whether `C=Cc1cc(-c2ccc(C(=O)N(C)C)c(Cl)c2)cnc1N1CCN(C(=O)OC(C)(C)C)CC1` shows Emax below 30%
Marked response: False

Exam item: Bench note: check whether `CN(C)C(=O)c1ccc(-c2cnc(N3CCN(C(=O)C4(c5ccccc5)CCC4)CC3)c(C#N)c2)cc1Cl` shows Emax below 30%
Marked response: False

Exam item: Bench note: check whether `COc1cc(-c2cnc(N3CCN(C(=O)OC(C)(C)C)CC3)c(C#N)c2)ccc1C(=O)N(C)C` shows Emax below 30%
Marked response: True

Exam item: Bench note: check whether `CN(C)C(=O)c1ccc(-c2cnc(N3CCN(C(=O)[C@@](O)(c4ccccc4)C(F)(F)F)CC3)c(C#N)c2)cc1Cl` shows Emax below 30%
Marked response: True

Exam item: Bench note: check whether CCC(C)S(=O)(=O)N1CCN(c2ncc(-c3ccc(C(=O)N(C)C)c(Cl)c3)cc2C#N)CC1 (centres unmarked) shows Emax below 30%
Marked response: False

Exam item: Bench note: check whether `CN(CCn1ccnc1)C(=O)c1ccc(-c2cnc(N3CCN(C(=O)OC(C)(C)C)CC3)c(C#N)c2)cc1Cl` shows Emax below 30%
Marked response: False
